Biological target: rat B1R (bradykinin receptor 1) (Rattus norvegicus, UniProt P97583)
Construct: expressed in transfected cells; host or cells: CHO K1 cells
Test: FLIPR Ca2+ assay (Fluo-4) on CHO K1 cells stably transfected with the B1R gene of the rat (rB1R cells): % inhibition at 10 μM / IC50, agonist Des-Arg9-bradykinin
Format: cell-based
Details: CHO-K1, rat B1R
Structures can show the parent of a compound that is named as a salt.
QUANTITY: inhibition at 10 µM (%)

Example entries and their recorded answers appear below.
COMPOUND	inhibition at 10 µM, %
Cn1cccc1CN1CCC2(CC1)CCN(C(=O)c1ccc3c(c1)C(NC(=O)c1ccccc1Cl)CC3)CC2 (stereo not shown) [IND_CC-512]	92
O=C(N[C@@H]1CCc2cc(F)c(C(=O)N3CCC4(CCN(c5ccncc5)CC4)C3)cc21)c1ccccc1Cl [Example H-64, hydrochloride]	105
Cc1ccc(C(=O)NC2CCc3ccc(C(=O)N4CCC5(CCN(c6ccncc6)CC5)C4)cc32)c(F)c1 (stereo not shown) [IND_CC-319]	102
O=C(NC1CCc2ccc(C(=O)N3CCC4(CCN(c5ccncc5)CC4)C3)cc21)c1cc(Cl)ccc1C(F)(F)F (stereo not shown) [IND_CC-316]	100

a = Cc1ccc(C(=O)NC2CCc3ccc(C(=O)N4CCC5(CC4)CCN(c4ccncc4)C5)cc32)c(F)c1 (stereo not shown) [IND_CC-306]
b = O=C(NC1CCc2ccc(C(=O)N3CCC4(CCN(Cc5ccccn5)CC4)CC3)cc21)c1cc(Cl)ccc1F (stereo not shown) [IND_CC-626]
Incoming: Field: lower inhibition at 10 µM | Options: a / b To answer, give the label that identifies your chosen option.
Outgoing: b
(b: 55%, a: 106%)

###

Molecular target: human B1R (bradykinin receptor 1) (Homo sapiens)
Construct: expressed in transfected cells; host or cells: CHO K1 cells
Sequence (P46663 whole entry): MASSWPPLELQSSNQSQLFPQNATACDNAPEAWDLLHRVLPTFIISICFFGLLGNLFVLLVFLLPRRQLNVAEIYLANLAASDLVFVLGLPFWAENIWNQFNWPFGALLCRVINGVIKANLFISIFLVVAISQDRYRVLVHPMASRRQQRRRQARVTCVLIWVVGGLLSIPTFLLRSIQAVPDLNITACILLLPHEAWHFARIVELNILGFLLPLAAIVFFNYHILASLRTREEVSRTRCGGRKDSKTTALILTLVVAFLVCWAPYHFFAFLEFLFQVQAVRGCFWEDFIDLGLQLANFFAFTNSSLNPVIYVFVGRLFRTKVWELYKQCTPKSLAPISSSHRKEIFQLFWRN
Test: FLIPR Ca2+ assay (Fluo-4) on CHO K1 cells stably transfected with the human B1R gene (hB1R cells): % inhibition at 10 μM / IC50, agonist Lys-Des-Arg9-bradykinin
Format: cell-based
Conditions: CHO-K1, human B1R
QUANTITY: inhibition at 10 µM (%)

MOLECULE	OBS VALUE
O=C(c1ccc2c(c1)C(N(C(=O)c1ccccc1Cl)C1CC1)CC2)N1CCC2(CC1)CCN(c1cccnc1)CC2 (stereo not shown)	99
O=C(N[C@@H]1CCc2c(C(=O)N3CCC4(CC3)CCN(c3ccncc3)CC4)cccc21)c1ccccc1Cl	25
O=C(N[C@H]1CCc2c(C(=O)N3CCC4(CCN(c5ccncc5)CC4)C3)cccc21)c1ccccc1Cl	89

P = O=C(c1ccc2c(c1)CC[C@@H]2N1Cc2cccc(Cl)c2C1=O)N1CCC2(CCN(c3ccncc3)CC2)C1
Q = N#Cc1cccc(CN2CCC3(CC2)CCN(C(=O)c2ccc4c(c2)C(NC(=O)c2ccccc2Cl)CC4)C3)c1 (stereo not shown)
R = CN1CCC(N2CCC3(CCN(C(=O)c4ccc5c(c4)[C@H](NC(=O)c4ccccc4Cl)CC5)CC3)CC2)CC1
Incoming: // ascending sort on recorded inhibition at 10 µM Response field: labels, in requested order.
Outgoing: Q, R, P
(Q: 27%, R: 57%, P: 100%)

a = COc1ccc(C(=O)N[C@@H]2CCc3ccc(C(=O)N4CCC5(CCN(c6ccncc6)CC5)C4)cc32)c(F)c1
b = O=C(NC1CCc2ccc(C(=O)N3CCC4(CCN(Cc5ccc(F)c(F)c5)CC4)C3)cc21)c1ccccc1Cl (stereo not shown)
Incoming: I'd appreciate it if you could identify which of a and b has the greater inhibition at 10 µM. To answer, give the label that identifies your chosen option.
Outgoing: a
(a: 100%, b: 27%)

###

Target: rat B1R (bradykinin receptor 1) (Rattus norvegicus, UniProt P97583)
Construct: expressed in transfected cells; host or cells: CHO K1 cells
Sequence (P97583 1-337): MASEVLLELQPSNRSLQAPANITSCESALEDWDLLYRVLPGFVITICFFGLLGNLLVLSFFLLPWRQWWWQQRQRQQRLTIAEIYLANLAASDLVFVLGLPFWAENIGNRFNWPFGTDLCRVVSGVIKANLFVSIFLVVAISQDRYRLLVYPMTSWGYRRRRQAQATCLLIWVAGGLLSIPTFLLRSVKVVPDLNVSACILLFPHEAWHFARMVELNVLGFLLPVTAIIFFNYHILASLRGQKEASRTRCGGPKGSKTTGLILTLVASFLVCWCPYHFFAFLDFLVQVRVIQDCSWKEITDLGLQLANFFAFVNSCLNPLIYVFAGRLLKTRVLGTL
Assay: FLIPR Ca2+ assay (Fluo-4) on CHO K1 cells stably transfected with the B1R gene of the rat (rB1R cells): % inhibition at 10 μM / IC50, agonist Des-Arg9-bradykinin
Type: cell-based
Details: rat B1R, 10 µM
QUANTITY: % Inhibition (rat B1R) at 10 μM (%)

COMPOUND	% Inhibition (rat B1R) at 10 μM / %
COc1cc(C)c(S(=O)(=O)NC2CCc3ccc(C(=O)N4CCC5(CC4)CCN(c4ccncc4)CC5)cc32)c(C)c1 (stereo not shown)	104
CN(C(=O)c1ccccc1Cl)C1CCc2ccc(C(=O)N3CCC4(CCN(c5ccncc5)CC4)C3)cc21 (stereo not shown)	100
O=C(NC1CCc2ccc(C(=O)N3CCC4(CCN(c5ccncc5)CC4)C3)cc21)c1ccccc1Cl (stereo not shown) [IND_CC-293]	106
O=C(NC1CCc2ccc(C(=O)N3CCC4(CCN(c5ccncc5)CC4)C3)cc21)c1ccccc1Cl (stereo not shown) [Example H-05]	105

###

Molecular target: rat B1R (bradykinin receptor 1) (Rattus norvegicus, UniProt P97583)
Construct: expressed in transfected cells; host or cells: CHO K1 cells
Assay: FLIPR Ca2+ assay (Fluo-4) on CHO K1 cells stably transfected with the B1R gene of the rat (rB1R cells): % inhibition at 10 μM / IC50, agonist Des-Arg9-bradykinin
Type: cell-based
Details: CHO-K1, rat B1R
QUANTITY: inhibition at 10 µM (%)

MOLECULE	OBS VALUE
O=C(NC1CCc2ccc(C(=O)N3CCC4(CCN(c5ccncc5)CC4)C3)cc21)c1cccc(Cl)c1Cl (stereo not shown)	107
Cc1ccc(C(=O)NC2CC(C)(C)c3ccc(C(=O)N4CCC5(CC4)CCN(c4ccncc4)CC5)cc32)c(F)c1 (stereo not shown)	100
O=C(NC1CCc2ccc(C(=O)N3CCC4(CCN(Cc5ccc[nH]5)CC4)CC3)cc21)c1ccccc1Cl (stereo not shown)	100
O=C(N[C@@H]1CCCc2ccc(C(=O)N3CCC4(CCN(c5ccncc5)CC4)C3)cc21)c1ccccc1Cl	103

###

Biological target: rat B1R (bradykinin receptor 1) (Rattus norvegicus)
Construct: expressed in transfected cells; host or cells: CHO K1 cells
Test: FLIPR Ca2+ assay (Fluo-4) on CHO K1 cells stably transfected with the B1R gene of the rat (rB1R cells): % inhibition at 10 μM / IC50, agonist Des-Arg9-bradykinin
Type: cell-based
Conditions: CHO-K1, rat B1R
QUANTITY: inhibition at 10 µM (%)

Example entries and their recorded answers appear below.
COMPOUND	QUANTITY	OUTPUT UNIT	OBS VALUE
Cc1cccc(Cl)c1C(=O)NC1CCc2ccc(C(=O)N3CCC4(CCN(CCc5ccccc5)CC4)C3)cc21 (stereo not shown) [IND_CC-769]	inhibition at 10 µM	%	91
N#Cc1cccc(CN2CCC3(CC2)CCN(C(=O)c2ccc4c(c2)C(NC(=O)c2cc(C(F)(F)F)ccc2Cl)CC4)C3)c1 (stereo not shown) [IND_CC-659]	inhibition at 10 µM	%	81

P = O=C(NC1CCc2ccc(C(=O)N3CCC4(CC3)CCN(c3ccncc3)C4)cc21)c1ccc(F)cc1C(F)(F)F (stereo not shown) [IND_CC-381]
Q = N#Cc1ccccc1CN1CCC2(CC1)CCN(C(=O)c1ccc3c(c1)C(NC(=O)c1cc(C(F)(F)F)ccc1Cl)CC3)C2 (stereo not shown) [IND_CC-660]
Incoming: I'd appreciate it if you could identify which of P and Q has the greater inhibition at 10 µM. To answer, give the label that identifies your chosen option.
Outgoing: P

###

Biological target: rat B1R (bradykinin receptor 1) (Rattus norvegicus, UniProt P97583)
Construct: expressed in transfected cells; host or cells: CHO K1 cells
Test: FLIPR Ca2+ assay (Fluo-4) on CHO K1 cells stably transfected with the B1R gene of the rat (rB1R cells): % inhibition at 10 μM / IC50, agonist Des-Arg9-bradykinin
Format: cell-based
Settings: CHO-K1, rat B1R
QUANTITY: inhibition at 10 µM (%)

Example entries and their recorded answers appear below.
MOLECULE	SYSTEM TESTED	QUANTITY	OUTPUT UNIT	OBS VALUE
Cc1ncccc1C(=O)N[C@@H]1CCc2ccc(C(=O)N3CCC4(CCN(c5ccncc5)CC4)C3)cc21	rat B1R (bradykinin receptor 1) (Rattus norvegicus, UniProt P97583)	inhibition at 10 µM	%	102
CN(C(=O)c1c(Cl)cccc1Cl)C1CCc2ccc(C(=O)N3CCC4(CC3)CCN(c3ccncc3)CC4)cc21 (stereo not shown)	rat B1R (bradykinin receptor 1) (Rattus norvegicus, UniProt P97583)	inhibition at 10 µM	%	108

I = O=C(NC1CCc2ccc(C(=O)N3CCC4(CCN(CCCc5cccc(F)c5)CC4)C3)cc21)c1cc(C(F)(F)F)ccc1Cl (stereo not shown)
II = CN(C(=O)c1ccccc1Cl)C1CCc2ccc(C(=O)N3CCC4(CCN(C(=O)c5cc(C(C)(C)C)nn5C)CC4)C3)cc21 (stereo not shown)
Incoming: I'd appreciate it if you could identify which of I and II has the greater inhibition at 10 µM. To answer, give the label that identifies your chosen option.
Outgoing: I
(I: 95%, II: 50%)

Data origin, for the record: patent US8455475B2
